Catalogue of fold change (FC) readings, one per entry.
Test: Induction of eIF2alpha phosphorylation in human K562 cells assessed as fold change at 10 uM incubated for 6 hrs by ELISA method
Type: cell-based
Conditions: filed as activator
experimental.readout: fold change (FC)

> print(dat)
                              sample.smiles  obs.value
1  O=c1c(Nc2ccc(C(F)(F)F)cc2)c(N[C@H]2CC[C@H](Oc3ccc([N+](=O)[O-])cc3)CC2)c1=O       0.91
2  N#Cc1ccc(O[C@H]2CC[C@H](Nc3c(Nc4ccccc4)c(=O)c3=O)CC2)cc1       0.88
3  N#Cc1ccc(O[C@H]2CC[C@H](Nc3c(Nc4cccc(F)c4)c(=O)c3=O)CC2)cc1        0.9
